Target: Synaptic vesicle membrane protein VAT-1 homolog (Homo sapiens, UniProt Q99536)
Sequence (Q99536 whole entry): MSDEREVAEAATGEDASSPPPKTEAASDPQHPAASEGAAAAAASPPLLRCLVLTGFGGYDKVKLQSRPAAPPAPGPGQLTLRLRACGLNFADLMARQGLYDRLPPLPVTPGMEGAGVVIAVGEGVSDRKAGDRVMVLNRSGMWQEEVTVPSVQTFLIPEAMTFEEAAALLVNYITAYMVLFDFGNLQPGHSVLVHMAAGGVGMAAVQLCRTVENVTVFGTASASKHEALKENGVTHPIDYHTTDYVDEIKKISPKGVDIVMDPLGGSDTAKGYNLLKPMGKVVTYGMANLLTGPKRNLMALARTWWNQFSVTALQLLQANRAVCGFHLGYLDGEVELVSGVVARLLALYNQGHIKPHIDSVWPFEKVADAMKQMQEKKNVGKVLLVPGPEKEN
Experiment: Covalent binding affinity to VAT1 at Cys residue in human NCI-H358 cells assessed as reduction of log2 H/L ratio for tryptic peptide […] incubated for 4 hrs followed by cell lysis and subsequently labelled with light thiol probe N-((S)-18-iodo-11-isopropyl-10,13,17-trioxo-3,6-dioxa-9,12,16-triazaoctadecyl)-6-((4R,5S)-5-methyl-2-oxoimidazolidin-4-yl)hexanamide and heavy thiol probe 4 for 1 hr under dark conditions followed by tryptic digestion for overnight and measured by discovery ABPP based nano LC-MS/MS analysis
pIC50: −log10 of the molar value.

[
  {
    "smiles-record": "C=CC(=O)N1CCN(c2ncnc3c(F)c(-c4c(O)cccc4F)c(Cl)cc23)CC1",
    "pIC50": 5.34
  }
]

The values you see were collected from ChEMBL document CHEMBL4715824.
